Exercise: for every item that follows, state its recorded log10(IC50).
Biological target: ATase (Homo sapiens)
Sequence (P16455 1-207): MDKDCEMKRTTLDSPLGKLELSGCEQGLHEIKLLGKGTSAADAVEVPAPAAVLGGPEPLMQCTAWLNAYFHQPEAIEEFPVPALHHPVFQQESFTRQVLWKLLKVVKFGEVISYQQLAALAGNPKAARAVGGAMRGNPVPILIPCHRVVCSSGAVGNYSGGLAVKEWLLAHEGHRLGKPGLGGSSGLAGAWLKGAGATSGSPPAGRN
Experiment: In vitro ATase inactivation assay with purified recombinant human ATase
Format: biochemical
Parameters: made in house
Could you please treat all values as log10 of IC50 in nM?

Problem: Give the reported value of log10(IC50) for this record: `Nc1nc(OCc2cccnc2)c2[nH]cnc2n1`
Result: 2.63

Problem: Give the reported value of log10(IC50) for this record: `Nc1nc(OCc2cnco2)c2nc[nH]c2n1`
Result: 2.53

Problem: Give the reported value of log10(IC50) for this record: `Nc1nc(OCc2ccoc2)c2nc[nH]c2n1`
Result: 2.18

Problem: Give the reported value of log10(IC50) for this record: `Nc1nc(OCc2ccncc2)c2nc[nH]c2n1`
Result: 2.11

Problem: Give the reported value of log10(IC50) for this record: `Nc1nc(OCc2cccc3ccccc23)c2nc[nH]c2n1`
Result: 4.98

Problem: Give the reported value of log10(IC50) for this record: `Cc1ccsc1COc1nc(N)nc2[nH]cnc12`
Result: 2.81

Problem: Give the reported value of log10(IC50) for this record: Nc1nc(OCc2cc3ccccc3s2)c2nc[nH]c2n1 [B.4226, O^6-(2-benzo[b]thienylmethyl)guanine]
Result: 1.48

Problem: Give the reported value of log10(IC50) for this record: `Nc1nc(OCc2cnc3c(c2)OCO3)c2nc[nH]c2n1`
Result: 2.36

Problem: Give the reported value of log10(IC50) for this record: `Cn1cc([N+](=O)[O-])cc1COc1nc(N)nc2[nH]cnc12`
Result: 2.74

Problem: Give the reported value of log10(IC50) for this record: `Nc1nc(OCc2ccc3c(c2)OCO3)c2ncn([C@@H]3O[C@H](CO)[C@@H](O)[C@H]3O)c2n1`
Result: 2.88

Problem: Give the reported value of log10(IC50) for this record: `Nc1nc(OCc2ccc(Br)s2)c2nc[nH]c2n1`
Result: 0.65

Problem: Give the reported value of log10(IC50) for this record: `Nc1nc(OCc2ccc3ccccc3c2)c2nc[nH]c2n1`
Result: 2.18

Problem: Give the reported value of log10(IC50) for this record: `Cc1ccc(COc2nc(N)nc3[nH]cnc23)s1`
Result: 3.95

Problem: Give the reported value of log10(IC50) for this record: CC(Oc1nc(N)nc2[nH]cnc12)c1ccsc1 (racemic) [B.4219, DL-O^6-[1-(3-thienyl)ethyl]guanine]
Result: 4.93

Problem: Give the reported value of log10(IC50) for this record: Cc1ccccc1COc1nc(N)nc2[nH]cnc12 [B.4218, O^6-(2-methylbenzyl)guanine, reference compound]
Result: 4.76

Problem: Give the reported value of log10(IC50) for this record: `Nc1nc(OCc2ccsc2)c2nc[nH]c2n1`
Result: 1.48

Problem: Give the reported value of log10(IC50) for this record: Nc1nc(OCc2cc3ccccc3s2)c2ncn([C@@H]3O[C@H](CO)[C@@H](O)[C@H]3O)c2n1 [B.4276, O^6-(2-benzo[b]thienylmethyl)guanosine]
Result: 2.54

Problem: Give the reported value of log10(IC50) for this record: `N#Cc1ccc(COc2nc(N)nc3[nH]cnc23)o1`
Result: 0.78

Problem: Give the reported value of log10(IC50) for this record: `Nc1nc(OCc2cncs2)c2nc[nH]c2n1`
Result: 1.52

Problem: Give the reported value of log10(IC50) for this record: `Nc1nc(OCc2cccs2)c2nc[nH]c2n1`
Result: 1.26

Problem: Give the reported value of log10(IC50) for this record: `Nc1nc(OCc2ccco2)c2nc[nH]c2n1`
Result: 1.90

Problem: Give the reported value of log10(IC50) for this record: `Cc1ccc(COc2nc(N)nc3[nH]cnc23)o1`
Result: 4.00

###

Target: ATase (Cricetulus griseus)
Construct: endogenous in cells; host or cells: Hamster +120 (V79 RJKO subline)
Sequence (P26186 whole entry): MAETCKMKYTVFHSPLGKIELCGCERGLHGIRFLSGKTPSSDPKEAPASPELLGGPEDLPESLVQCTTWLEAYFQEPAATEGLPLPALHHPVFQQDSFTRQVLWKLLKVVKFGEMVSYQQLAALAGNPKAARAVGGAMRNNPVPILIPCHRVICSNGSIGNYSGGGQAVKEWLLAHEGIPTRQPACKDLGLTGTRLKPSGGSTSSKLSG
Experiment: Inactivation of ATase activity in Hamster +120 cells
Assay type: cell-based, Chinese hamster
Details: 2 hours at 37°C, read-out: Inactivation of ATase in Mammalian Cells I50(µM) Hamster + 120
READOUT LABEL: IC50 (µM)
// note: answer is a bare numeric in µM

Problem: Give the reported value of IC50 for this record: `Nc1nc(OCc2ccco2)c2nc[nH]c2n1`
Result: 0.12

###

Experiment: Inactivator toxicity in bone marrow cells (GM-CFC colonies, inactivator alone)
Assay type: cell-based, human
Conditions: human, bone marrow gm-cfc, inactivator 10uM, Patient D; read-out: No. of colonies as % of control (ie no inactivator)
READOUT LABEL: viability at 216 h, 10 µM
Remember to quote the unit after the number.

Problem: Give the reported value of viability at 216 h, 10 µM for this record: Nc1nc(OCc2ccccc2)c2nc[nH]c2n1 [O^6-benzylguanine, reference compound]
Result: 88%

Problem: Give the reported value of viability at 216 h, 10 µM for this record: `Nc1nc(OCc2cccs2)c2nc[nH]c2n1`
Result: 118%

###

Exercise: for every item that follows, state its recorded half-life at 100 µM.
Assay: Stability of inactivators at 37°C (spectrophotometric half life)
Type: physicochemical
Settings: 0.1mM in PBS (pH 7-7.2), read-out: T1/2(h) in PBS (converted)

Problem: Give the reported value of half-life at 100 µM for this record: `Nc1nc(OCc2cccs2)c2nc[nH]c2n1`
Result: 0.6 h

Problem: Give the reported value of half-life at 100 µM for this record: `Nc1nc(OCc2cccnc2)c2[nH]cnc2n1`
Result: > 16 h

Problem: Give the reported value of half-life at 100 µM for this record: `Cc1ccc(COc2nc(N)nc3[nH]cnc23)o1`
Result: > 16 h

###

Target: ATase (Homo sapiens)
Test: In vitro ATase inactivation assay with purified recombinant human ATase
Format: biochemical
Design: made in house
Conditions: Figure 1, in words
READOUT LABEL: effectiveness in the in vitro ATase inactivation assay compared with BeG

GIVEN SMILES | RESULT
Nc1nc(OCc2ccc3c(c2)OCO3)c2nc[nH]c2n1 | considerably better
Nc1nc(OCc2cccs2)c2nc[nH]c2n1 | considerably better

###

Molecular target: ATase (Homo sapiens, UniProt P16455)
Sequence (P16455 1-207): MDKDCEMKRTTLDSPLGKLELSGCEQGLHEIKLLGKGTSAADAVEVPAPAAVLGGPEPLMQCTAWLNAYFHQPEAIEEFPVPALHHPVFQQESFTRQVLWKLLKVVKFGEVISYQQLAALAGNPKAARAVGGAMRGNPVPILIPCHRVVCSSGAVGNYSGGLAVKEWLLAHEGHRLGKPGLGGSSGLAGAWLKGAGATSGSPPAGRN
Assay: In vitro ATase inactivation assay with purified recombinant human ATase
Assay type: biochemical
Design: made in house
Method: The cDNA cloning and overexpression of the human ATase has been reported previously^23. […] Compounds to be tested were dissolved in DMSO to a final concentration of 10 mM and diluted just before use in buffer I containing 1 mg/ml bovine serum albumin (IBSA). […] Following acid hydrolysis of the DNA as previously described^21 the [^3H]-methylated protein was recovered and quantitated by liquid scintillation counting. […]
READOUT LABEL: pIC50
# pIC50 is unitless: minus log10 of the molar concentration; print number only

Problem: Give the reported value of pIC50 for this record: C=CCOc1nc(N)nc2[nH]cnc12 [O^6-allylguanine, reference compound]
Result: 4.66

Problem: Give the reported value of pIC50 for this record: Nc1nc(OCc2ccc(C(=O)O)o2)c2nc[nH]c2n1 [B.4234, O^6-(5-carboxyfurfuryl)guanine]
Result: 4.22

Problem: Give the reported value of pIC50 for this record: COC(=O)c1ccc(COc2nc(N)nc3[nH]cnc23)o1 [B.4229, O^6-(5-methoxycarbonylfurfuryl)guanine]
Result: 7.05

Problem: Give the reported value of pIC50 for this record: Nc1nc(OCc2ccc3c(c2)OCO3)c2nc[nH]c2n1 [B.4212, O^6-piperonylguanine]
Result: 7.70

Problem: Give the reported value of pIC50 for this record: Nc1nc(OCc2cc3ccccc3o2)c2nc[nH]c2n1 [B.4266, O^6-(2-benzofuranylmethyl)guanine]
Result: 7.46

Problem: Give the reported value of pIC50 for this record: Nc1nc(OCc2cccs2)c2ncn([C@@H]3O[C@H](CO)[C@@H](O)[C@H]3O)c2n1 [B.4279, O^6-thenylguanosine]
Result: 6.05
